- Test system: CCRF-CEM leukemia
- Experiment summary: NCI tumour cell line growth inhibition, 48 h; in the data active = GI50 below about 0.43 µM; inactive = the rest
API: response.call in 1 (yes) for active, 0 (no) for inactive

c1ccc2[nH]c(-c3ccc(Nc4nc(N5CCCCC5)nc(N5CCOCC5)n4)cc3)nc2c1 : 0 (no)
Cc1cc(I)cc(CN(C)CCCN2CCCC2)c1O : 0 (no)
O=C1OCC2=C1C(c1ccccc1)c1cc3c(cc1N2CCO)OCO3 (stereo not drawn) : 0 (no)
CNC(=O)c1nn(C)c2c1C(C)(C)Cc1cnc(Nc3ccc(N4CCN(C)CC4)cc3)nc1-2 : 0 (no)
O=S(=O)(CCCl)c1ccc(Cl)cc1 : 0 (no)
COc1ccc(C(=O)c2ccc([As]=O)cc2)cc1 (stereo not drawn) : 1 (yes)
O=S(=O)(NCCCNc1nccc(-c2c(-c3ccc(F)cc3)nc3sccn23)n1)c1ccc2ccccc2c1 : 0 (no)

Prompt line: Record request — test call for "O=c1c(F)cn(Cc2ccccc2CCl)c(=O)n1Cc1ccccc1CCl"
Response line: 0 (no)

* * *

- Test system: RPMI-8226 leukemia
- Experiment summary: NCI tumour cell line growth inhibition, 48 h
Use Fulfilled when the recorded TGI is no lower than 6 µM; use Not fulfilled when it is lower.

# example entries with known answers
COc1cc2c(c(O)c1OC)C(=O)C(Cc1ccc(O)cc1)CO2 (stereo unspecified) : Fulfilled
O=[N+]([O-])c1ccc(-c2ccc(-c3csc(Nc4ccccc4)n3)o2)cc1 : Fulfilled
CCOC(=O)C(NC(=O)c1nc[nH]c1[N+](=O)[O-])C(C)C (stereo unspecified) : Fulfilled

Prompt line: TGI >= 6 µM for "Cc1ccc(C2=CC(=O)/C(=C\C(=O)c3ccc(Cl)cc3)O2)cc1" ?
Response line: Fulfilled

Prompt line: TGI >= 6 µM for CC(=O)OC1CCC2C3CCc4c(C)ccc(OS(=O)(=O)c5ccccc5)c4C3CCC12C (stereo unspecified) ?
Response line: Fulfilled

Prompt line: TGI >= 6 µM for "CCOC(=O)c1cn2c(n1)sc1cc(Cl)cc(Cl)c12" ?
Response line: Fulfilled

Prompt line: TGI >= 6 µM for CC(=O)c1ccc2c(c1)CC1(C2)Cc2ccccc2C1=O (stereo unspecified) ?
Response line: Fulfilled

Prompt line: TGI >= 6 µM for CCCCN(CC)CC(C(C)=O)c1c(O)c2ccccc2oc1=O (stereo unspecified) ?
Response line: Fulfilled

Prompt line: TGI >= 6 µM for "O=C(Nc1noc(-c2ccccc2)n1)c1ccccc1CNc1noc(-c2ccccc2)n1" ?
Response line: Fulfilled

Prompt line: TGI >= 6 µM for "CN(C)CCNC(=O)Cn1ccc(=O)c2c([N+](=O)[O-])cccc21" ?
Response line: Fulfilled

Prompt line: TGI >= 6 µM for COc1ccc(CC2COc3cc(O)cc(O)c3C2=O)cc1O (stereo unspecified) ?
Response line: Fulfilled

Prompt line: TGI >= 6 µM for "O=c1oc2ccccc2[n+]([O-])c1-c1ccccc1" ?
Response line: Fulfilled

Prompt line: TGI >= 6 µM for "CCON1CC(C(=O)OC)=C(O)C1=O" ?
Response line: Fulfilled

Prompt line: TGI >= 6 µM for "NC(=S)NN/C=C(\C=Nc1ccccc1)[N+](=O)[O-]" ?
Response line: Fulfilled

Prompt line: TGI >= 6 µM for "C=C1c2nc3ccccc3n2C=C(c2ccc(Cl)cc2)N1c1ccc(OC)cc1" ?
Response line: Fulfilled

* * *

- Test system: ACHN renal
- Experiment summary: NCI tumour cell line growth inhibition, 48 h; in the data active means GI50 below about 0.43 µM; inactive means the rest
API: response.call in y (active), n (inactive)

C=C(CN(C)C)C(=O)c1ccccc1[N+](=O)[O-] : n

Prompt line: Record request — test call for COc1ccc(C(=O)c2ccc([As]=O)cc2)cc1 (centres undefined)
Response line: y

Prompt line: Record request — test call for "Nc1ccc(/C=C/C(=O)NCc2cc3cc(-c4ccc(C(=O)N5CCC(F)(F)CC5)cc4)cc(-c4ccc(F)cc4)c3o2)cn1"
Response line: n

Prompt line: Record request — test call for C[C@H]1CCCC(O)C(O)[C@@H]2C[C@H](O[Si](C)(C)C(C)(C)C)C[C@H]2[C@H](O[Si](C)(C)C(C)(C)C)C(O)C(O)C(=O)O1 (some centres undefined)
Response line: n

* * *

TGI for assorted compounds
- System: MOLT-4 leukemia
- Experiment summary: NCI tumour cell line growth inhibition, 48 h

Solved entries (count: 5):
O=C1c2ccccc2NC(=S)[C@@H]2CCCN12 : > 100 µM
O=C(N[C@@H](C[Se][Se]C[C@H](NC(=O)c1ccc(Br)cc1F)C(=O)O)C(=O)O)c1ccc(Br)cc1F : > 100 µM
CC(=O)OC1CCC2C3CCc4c(C)ccc(OS(=O)(=O)c5ccccc5)c4C3CCC12C (stereo unspecified) : > 100 µM
CCC(C(=O)C(=O)OC)P1(=O)OC(C)(C)CN1C(C)(C)C (stereo unspecified) : > 100 µM
FC(F)(F)c1cc(C2SCc3nc4ccccc4n32)cc(C(F)(F)F)c1 (stereo unspecified) : > 100 µM

Prompt line: Find the recorded TGI belonging to CN(C)CC1CCC(CN(C)C)C1=O (stereo unspecified) and report it.
Response line: 4.03 µM

Prompt line: Find the recorded TGI belonging to "O=c1cc(/C=C/c2ccccc2)[nH]c2cc3c(cc12)OCO3" and report it.
Response line: 13.7 µM

Prompt line: Find the recorded TGI belonging to "Cc1cc(I)cc(CN(C)CCCN2CCCC2)c1O" and report it.
Response line: 39.1 µM

Prompt line: Find the recorded TGI belonging to "CCOC(=O)c1cn2c(n1)sc1cc(Cl)cc(Cl)c12" and report it.
Response line: > 100 µM

Prompt line: Find the recorded TGI belonging to "C=C1c2nc3ccccc3n2C=C(c2ccc(Cl)cc2)N1c1ccc(OC)cc1" and report it.
Response line: > 100 µM

Prompt line: Find the recorded TGI belonging to "O=C(O)c1ccccc1/C=N/N=C1c2ccccc2-c2ccccc21" and report it.
Response line: 71 µM

* * *

TGI for assorted compounds
- Tested on: DMS 273 small cell lung
- Experiment summary: NCI tumour cell line growth inhibition, 48 h

Solved entries (count: 2):
CC(=O)OCC1OC(N2C(=O)C(=O)c3ccccc32)C(OC(C)=O)C(OC(C)=O)C1OC(C)=O (centres undefined) : > 100 µM
O=C(N/N=C/c1cccc(F)c1)c1ccncc1 : > 100 µM

Prompt line: Find the recorded TGI belonging to CCC(=O)Nc1nc2c(ncn2C2OC(COC(=O)CC)C(OC(=O)CC)C2OC(=O)CC)c(=O)[nH]1 (centres undefined) and report it.
Response line: > 100 µM

Prompt line: Find the recorded TGI belonging to COc1cc2c(cc1OC)C(C(=O)c1cccc(OC)c1OC)C(=O)N(C)CC2 (centres undefined) and report it.
Response line: > 100 µM

Prompt line: Find the recorded TGI belonging to CN(C)CC1CCC(CN(C)C)C1=O (centres undefined) and report it.
Response line: 36.7 µM

Prompt line: Find the recorded TGI belonging to C/C(=N/NC(=O)C[N+](C)(C)C)C(CN(C)C)C(=O)Nc1ccccc1 (centres undefined) and report it.
Response line: > 100 µM

Prompt line: Find the recorded TGI belonging to "CCNC(=O)COc1ccc(Cl)cc1Cl" and report it.
Response line: > 100 µM

Prompt line: Find the recorded TGI belonging to "CN(C)C(=S)/N=c1\ssc(=S)n1Cc1ccncc1" and report it.
Response line: 76.3 µM

Prompt line: Find the recorded TGI belonging to "O=C(/C=C/c1ccccc1)CC(=O)CCC(=O)Nc1ccc(Cl)cc1" and report it.
Response line: > 100 µM

* * *

- Tested on: NCI/ADR-RES ovarian
- Experiment summary: NCI tumour cell line growth inhibition, 48 h
GI50 for assorted molecules

Solved entries (count: 3):
Cc1ccc(NC(=O)c2cc(S(=O)(=O)N3C(=O)NC(=O)NS3(=O)=O)c(S)cc2Cl)cc1 : > 100 µM
COc1ccc(CN2C3CC2CN(c2ccc(-c4cc(OCC(C)(C)O)cn5ncc(C#N)c45)cn2)C3)cn1 : 28.7 µM
Cc1ccc(-c2nc3nc(-c4ccc(F)cc4)nc(N4CCCNCC4)c3o2)cc1 : 1.91 µM

Prompt line: Find the recorded GI50 belonging to "O=C(N[C@@H](C[Se][Se]C[C@H](NC(=O)c1ccc(Br)cc1F)C(=O)O)C(=O)O)c1ccc(Br)cc1F" and report it.
Response line: > 100 µM

* * *

TGI for assorted molecules
- System: T-47D breast
- Experiment summary: NCI tumour cell line growth inhibition, 48 h

Solved entries (count: 3):
O=[N+]([O-])c1ccc2c(c1)C1=NN(c3ccccc3)C(c3ccccc3Br)C1CCC2 (stereo not given) : 47.3 µM
COC(=O)C1=Nc2c(C)nn(-c3ccccc3)c2N=C(c2ccccc2)C1 : > 10 µM
Nc1ccc(/C=C/C(=O)NCc2cc3cc(-c4ccc(C(=O)N5CCC(F)(F)CC5)cc4)cc(-c4ccc(F)cc4)c3o2)cn1 : > 100 µM

Prompt line: Find the recorded TGI belonging to "COC(=O)c1cc(C#N)[nH]c1-c1cc(Br)cs1" and report it.
Response line: 12.8 µM

Prompt line: Find the recorded TGI belonging to CC12CCCC3(CC(=O)C(C)(C)C3C(=O)C1)C2 (stereo not given) and report it.
Response line: > 100 µM

Prompt line: Find the recorded TGI belonging to "CN(C)CCNC(=O)Cn1ccc(=O)c2c([N+](=O)[O-])cccc21" and report it.
Response line: > 100 µM

Prompt line: Find the recorded TGI belonging to "CC(NC(=O)N(C)C)NC(=O)N(C)C" and report it.
Response line: > 10 µM

Prompt line: Find the recorded TGI belonging to CCOC(=O)C1CCC(=O)N1C(=O)c1ccccc1 (stereo not given) and report it.
Response line: > 100 µM

Prompt line: Find the recorded TGI belonging to "O=C(O)c1ccccc1/C=N/N=C1c2ccccc2-c2ccccc21" and report it.
Response line: > 100 µM

Prompt line: Find the recorded TGI belonging to "COc1cnc2c(c1)C(=O)c1c-2n(CCCN2CCN(C)CC2)c(=O)c2cc([N+](=O)[O-])ccc12" and report it.
Response line: 4.01 µM
